Assay: Selectivity index, ratio of CC50 for human MT2 cells to EC50 for X4 tropic HIV1 3B infected in human MT2 cells
Assay type: toxicity, cell-based
Conditions: read-out: Ratio CC50/EC50
Entries annotated with measured selectivity ratio

| COMPOUND | selectivity ratio |
| --- | --- |
| C[C@H]1/C=C/[C@@]2(C)CC[C@@H](C(C)(C)O)[C@@H]2[C@@H](O)C[C@@](C)(O)/C=C\C1 | 184 |
| C=C1CC[C@@H]2C(=C(C)C)C(=O)C[C@@]2(C)C[C@@H](O)[C@](C)(O)CC[C@@H]1O | 236 |
| CC(C)=C1CC[C@@]2(C)C/C=C(\C)CC/C=C(\C)CC[C@H]12 | 8.7 |
| CC(C)=C1C(=O)C[C@@]2(C)C/C=C(\CO)CC/C=C(\C)CC[C@H]12 | 1420 |
| CC(C)=C1C(=O)C[C@@]2(C)C/C=C(\C)CC/C=C(\C)CC[C@H]12 [DOLABELLANE] | 13.5 |
| CC(C)=C1C(=O)C[C@@]2(C)C[C@@H]3O[C@@]3(C)CC[C@@H]3O[C@@]3(C)CC[C@H]12 | 2320 |
